# assay_explanation: chemical genetic growth profiling, strain panel (AID 1159580);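 note: tested at 20 µM; growth read once vehicle control cultures reached saturation at 30 °C; 1 = growth at the plate median or of vehicle wells; lower values mean less growth of the strain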
# conditions: S. cerevisiae deletion strains, growth OD, locus YAL013W, strain DEP1
Screen size: about 5,500 compounds; about 2,000 (36%) were called active. Not shown: some 18% with an inconclusive outcome. Cut-off read from the data, not from the text of the source: active = normalized growth mostly below about 0.91 (no sharp cut-off); inconclusive = no clear call, values can overlap the other calls; inactive = mostly above about 0.92. Some of the results follow.
Pick one and only one: True for active, False for inactive

INSERT INTO measurements (molecule, label_value) VALUES
  ('COc1ccc2cc3[n+](cc2c1OC)CCc1cc2c(cc1-3)OCO2', 'True'),
  ('CN(C)CCC=C1c2ccccc2C=Cc2ccccc21', 'False'),
  ('CC1(C)O[C@@H]2CC3C4C[C@H](F)C5=CC(=O)C=CC5(C)C4C(O)CC3(C)[C@]2(C(=O)CO)O1 (some centres not stated)', 'False'),
  ('CN(C)CC/C=C1\c2ccccc2COc2ccccc21', 'False');

*Q* Short answer needed: outcome of this test for "O=C(N/N=C\c1ccccc1Cl)c1cccnc1" ?
*A* False

*Q* Short answer needed: outcome of this test for "COc1cc2cc[n+]3cc4c(OC)c(OC)ccc4cc3c2cc1OC" ?
*A* False

* * *

# assay_explanation: chemical genetic growth profiling, strain panel (AID 1159580)
# conditions: S. cerevisiae deletion strains, growth OD, locus YLR370C, strain arc18
The campaign covered roughly 5,500 compounds. About 2,000 (36%) were called active. Inconclusive results (about 18%) are left out. Cut-off read from the data, not from the text of the source: active = normalized growth mostly below about 0.91 (no sharp cut-off); inconclusive = no clear call, values can overlap the other calls; inactive = mostly above about 0.92. The list shows a part of the results.
Pick one and only one: 1 (active), -1 (inactive)

Observe how each entry below is paired with its result.
INSERT INTO results (smiles_record, label_value) VALUES
  ('CCN1CCN(c2cc3c(cc2F)c(=O)c(C(=O)O)cn3C2CC2)CC1', -1),
  ('O=c1c(-c2cc(O)c(O)c(O)c2)coc2cc(O)c(O)c(O)c12', -1),
  ('CC(C)=CCc1c2c(c(O)c3c(=O)c(O)c(-c4ccccc4)oc13)C=CC(C)(C)O2', 1),
  ('O=C(O)c1cn(-c2ccc(F)cc2)c2cc(N3CCNCC3)c(F)cc2c1=O', -1),
  ('CC(=O)Nc1cccc(O)c1', -1),
  ('CC(=O)Nc1ccc(O)cc1', -1),
  ('COc1ccc(-c2cc(=O)c3c(OC)c(OC)c(OC)c(OC)c3o2)cc1', 1),
  ('COc1ccc(-c2cc(=O)c3c(OC(C)=O)cc(OC(C)=O)cc3o2)cc1', -1);

*Q* Short answer needed: outcome of this test for "CC(=O)Oc1ccc(-c2cc(=O)c3c(OC(C)=O)cc(OC(C)=O)cc3o2)cc1" ?
*A* -1

*Q* Short answer needed: outcome of this test for "COc1ccc(-c2cc(=O)c3c(O)c(OC)c(OC)c(OC)c3o2)cc1" ?
*A* -1

*Q* Short answer needed: outcome of this test for "N[C@@H]1CONC1=O" ?
*A* -1

* * *

We begin with a simple list: items and their reported normalized growth.
# assay_explanation: chemical genetic growth profiling, strain panel (AID 1159580)
# conditions: S. cerevisiae deletion strains, growth OD, locus YLR058C, strain SHM2, hits give low values
Among all 5,500 compounds or so, about 2,000 (36%) were called active. About 18% were inconclusive and are not listed. Some of the results follow.
Hey, just send me the number, nothing else.

Example compounds with recorded normalized growth:
INSERT INTO results (compound, value_observed) VALUES
  ('ClC(Cl)=C(c1ccc(Cl)cc1)c1ccc(Cl)cc1', 0.962),
  ('COc1ccc(-c2cc(=O)c3ccccc3o2)cc1OC', 1.01),
  ('C=CCCCCCCCCCCCC(O)CC(O)CO (configuration not stated)', 0.944),
  ('CC[N+]1(C)CCCC(OC(=O)C(O)(c2ccccc2)c2ccccc2)C1 (configuration not stated)', 1.01);

*Q* Sample "CCn1cc(C(=O)O)c(=O)c2cc(F)c(N3CCNCC3)cc21" — what was its normalized growth?
*A* 1.01

*Q* Sample CN1CCN2c3ccccc3Cc3ccccc3C2C1 (configuration not stated) — what was its normalized growth?
*A* 1.01

* * *

# assay_explanation: chemical genetic growth profiling, strain panel (AID 1159580)
# conditions: S. cerevisiae deletion strains, growth OD, locus YFR028C, strain CDC14
The campaign covered roughly 5,500 compounds. About 2,000 (36%) were called active. Another 18% or so got no clear call; they are omitted. Rule as the data show it: active = normalized growth mostly below about 0.91 (no sharp cut-off); inconclusive = no clear call, values can overlap the other calls; inactive = mostly above about 0.92. Some of the results follow.
Pick one and only one: TRUE for active, FALSE for inactive

Observe how each entry below is paired with its result.
INSERT INTO measurements (molecule, label_value) VALUES
  ('CCC(C)COC(=O)/C=C/c1ccc(N=Cc2ccc(OC)cc2)cc1 (stereo not drawn)', 'FALSE'),
  ('N#CCC(=O)c1cccc(CSc2ccccc2Cl)c1', 'FALSE'),
  ('N#CCCCCOc1ccc2c(=O)cc(-c3ccccc3)oc2c1', 'FALSE'),
  ('CC(C)(C)c1csc(NC(=O)Nc2ccc(Cl)cc2)n1', 'FALSE'),
  ('O=C(CSCc1nc(-c2ccc(Cl)cc2)cs1)N/N=C\c1cccs1', 'FALSE'),
  ('COc1cc(NC(=S)Nc2ccccc2OC(F)(F)F)cc(C(F)(F)F)c1', 'FALSE');

*Q* Short answer needed: outcome of this test for "Cc1csc2ncnc(N/N=C\c3ccccc3Cl)c12" ?
*A* FALSE

*Q* Short answer needed: outcome of this test for "CN(C(=O)N(C)c1ccc(Cl)cc1C(=O)c1ccccc1Cl)c1ccc(Cl)cc1C(=O)c1ccccc1Cl" ?
*A* TRUE

* * *

# assay_explanation: chemical genetic growth profiling, strain panel (AID 1159580);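 note: tested at 20 µM; growth read once vehicle control cultures reached saturation at 30 °C; 1 = growth at the plate median or of vehicle wells; lower values mean less growth of the strain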
# conditions: S. cerevisiae deletion strains, growth OD, locus YBL105C, strain PKC1, hits give low values
Screen size: about 5,500 compounds; about 2,000 (36%) were called active. Roughly 18% stayed inconclusive and do not appear here. The list shows a part of the results.
observed_property: normalized growth
Hey, just send me the number, nothing else.

INSERT INTO assay_data (smiles_record, observed_property, value_observed) VALUES
  ('CN(C(=O)N(C)c1ccc(Cl)cc1C(=O)c1ccccc1Cl)c1ccc(Cl)cc1C(=O)c1ccccc1Cl', 'normalized growth', 0.85),
  ('CC(C)(C)c1csc(NC(=O)c2ccc(Cl)cc2Cl)n1', 'normalized growth', 0.976);

// switching to the query compound
*Q* Sample "O=C1Nc2ccccc2/C1=N/N=C\c1cc(Br)cc(Br)c1O" — what was its normalized growth?
*A* 0.959

* * *

We begin with a simple list: items and their reported normalized growth.
# assay_explanation: chemical genetic growth profiling, strain panel (AID 1159580);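 note: tested at 20 µM; growth read once vehicle control cultures reached saturation at 30 °C; 1 = growth at the plate median or of vehicle wells; lower values mean less growth of the strain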
# conditions: S. cerevisiae deletion strains, growth OD, locus YEL061C, strain CIN8 (second series), hits give low values
Hit rate of the full screen: of about 5,500 compounds, about 2,000 (36%) were called active. About 18% were inconclusive and are not listed. This is one part of the list.
Hey, just send me the number, nothing else.

INSERT INTO measurements (compound, value_observed) VALUES
  ('CC(C)(C)C(=O)C(Oc1ccc(Cl)cc1)n1cncn1 (stereo unspecified)', 0.139),
  ('CCN1CCN(c2cc3c(cc2F)c(=O)c(C(=O)O)cn3C2CC2)CC1', 1.02),
  ('CN(C)C(=O)Oc1cc(OC(=O)N(C)C)cc(C(O)CNC(C)(C)C)c1 (stereo unspecified)', 1.03);

*Q* Sample CCCCOc1cc(CC2CNC(=O)N2)ccc1OC (stereo unspecified) — what was its normalized growth?
*A* 0.981

*Q* Sample "COc1ccc(C(=O)/C=C/c2ccccc2)cc1" — what was its normalized growth?
*A* 0.844

*Q* Sample "CN(C)CCC=C1c2ccccc2CCc2ccccc21" — what was its normalized growth?
*A* 0.988

*Q* Sample "O=C(O)c1cn(-c2ccc(F)cc2)c2cc(N3CCNCC3)c(F)cc2c1=O" — what was its normalized growth?
*A* 0.97

*Q* Sample CC1(C)O[C@@H]2CC3C4CCC5=CC(=O)C=C[C@]5(C)[C@@]4(F)[C@@H](O)C[C@]3(C)[C@]2(C(=O)CO)O1 (stereo partly specified) — what was its normalized growth?
*A* 1

* * *

# assay_explanation: chemical genetic growth profiling, strain panel (AID 1159580);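 note: tested at 20 µM; growth read once vehicle control cultures reached saturation at 30 °C; 1 = growth at the plate median or of vehicle wells; lower values mean less growth of the strain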
# conditions: S. cerevisiae deletion strains, growth OD, locus YLR102C, strain apc9, hits give low values
In all, about 5,500 compounds went through this assay and about 2,000 (36%) were called active. Not shown: some 18% with an inconclusive outcome. This is one part of the list.
observed_property: normalized growth
Hey, just send me the number, nothing else.

INSERT INTO assay_data (molecule, observed_property, value_observed) VALUES
  ('Cc1cc2cc3c(C)cc(=O)oc3c(C)c2o1', 'normalized growth', 0.994),
  ('CC(=O)O.CC(=O)O.[Cd]', 'normalized growth', 0.464),
  ('NS(=O)(=O)c1cc2c(cc1C(F)(F)F)NCNS2(=O)=O', 'normalized growth', 0.985),
  ('CC(=O)CC(c1ccccc1)c1c(O)c2ccccc2oc1=O (configuration not stated)', 'normalized growth', 1.01),
  ('C[n+]1cc2c3c(ccc2c2ccc4cc5c(cc4c21)OCO5)OCO3', 'normalized growth', 0.0679),
  ('CC(=O)Oc1cc(-c2coc3cc(OC(C)=O)c(OC(C)=O)c(OC(C)=O)c3c2=O)cc(OC(C)=O)c1OC(C)=O', 'normalized growth', 1.03),
  ('CC(=O)O[C@H]1C[C@H](O[C@H]2[C@@H](O)C[C@H](O[C@H]3[C@@H](O)C[C@H](O[C@H]4CC[C@@]5(C)C(CCC6C5C[C@@H](O)[C@]5(C)[C@@H](C7=CC(=O)OC7)CC[C@]65O)C4)O[C@@H]3C)O[C@@H]2C)O[C@H](C)[C@H]1O[C@@H]1O[C@H](CO)[C@@H](O)[C@H](O)[C@H]1O (some centres not stated)', 'normalized growth', 0.978),
  ('COc1ccc(-c2coc3cc(O)cc(O)c3c2=O)cc1', 'normalized growth', 0.625),
  ('CC(=O)N(O)CCCCCNC(=O)CCC(=O)N(O)CCCCCNC(=O)CCC(=O)N(O)CCCCCN', 'normalized growth', 1.03),
  ('COc1c(O)cccc1O', 'normalized growth', 1);

*Q* Sample "Clc1ccc(Cl)cc1" — what was its normalized growth?
*A* 0.993

*Q* Sample CC1(C)O[C@@H]2CC3C4CCC5=CC(=O)C=C[C@]5(C)[C@@]4(F)[C@@H](O)C[C@]3(C)[C@]2(C(=O)CO)O1 (some centres not stated) — what was its normalized growth?
*A* 0.998

*Q* Sample "COc1cc([C@@H]2c3cc4c(cc3[C@H](O)[C@H]3COC(=O)[C@@H]23)OCO4)cc(OC)c1OC" — what was its normalized growth?
*A* 0.984

*Q* Sample "COc1ccc(-c2coc3cc(OC)cc(O)c3c2=O)cc1" — what was its normalized growth?
*A* 0.969

*Q* Sample "CCn1cc(C(=O)O)c(=O)c2cc(F)c(N3CCNCC3)cc21" — what was its normalized growth?
*A* 1

*Q* Sample "CCC/C=C/C=C/[C@@H]1C[C@@H](O)[C@@H](O)C(=O)[C@H]1C=O" — what was its normalized growth?
*A* 0.983

*Q* Sample CSc1ccc2c(c1)C(N1CCN(C)CC1)Cc1ccccc1S2 (configuration not stated) — what was its normalized growth?
*A* 0.987

*Q* Sample "ClC(Cl)=C(c1ccc(Cl)cc1)c1ccc(Cl)cc1" — what was its normalized growth?
*A* 0.954

*Q* Sample "CCN(CC)CCNc1ccc(CO)c2sc3ccccc3c(=O)c12" — what was its normalized growth?
*A* 1.02

*Q* Sample "Cc1coc2ccccc2c1=O" — what was its normalized growth?
*A* 1.04

*Q* Sample "COc1cccc(-c2cc(=O)c3ccc(OC)cc3o2)c1" — what was its normalized growth?
*A* 1.03

*Q* Sample "CC(C)Oc1ccc2c(=O)cc(-c3ccccc3)oc2c1" — what was its normalized growth?
*A* 0.881

*Q* Sample CCC(CCC(C)[C@H]1CCC2C3CC=C4C[C@@H](O)CC[C@]4(C)C3CC[C@@]21C)C(C)C (some centres not stated) — what was its normalized growth?
*A* 0.976

*Q* Sample C=CCCCCCCCCCCCC(O)CC(O)CO (configuration not stated) — what was its normalized growth?
*A* 0.99

*Q* Sample C=C1C2CC[C@@]3(C)[C@H](c4ccoc4)OC(=O)C[C@]13O[C@H]1CC(=O)C(C)(C)[C@H](C(O)C(=O)OC)[C@@]21C (some centres not stated) — what was its normalized growth?
*A* 1.01

*Q* Sample "CN(C)CCC=C1c2ccccc2CCc2ccccc21" — what was its normalized growth?
*A* 0.987

*Q* Sample C=CCCCCCCCCCCCC(O)CC(O)CO (configuration not stated) (tested in a mixture with another compound) — what was its normalized growth?
*A* 0.225

*Q* Sample CN1CCOC(c2ccccc2)c2ccccc2C1 (configuration not stated) — what was its normalized growth?
*A* 1.02

*Q* Sample "O=c1oc2ccccc2c(O)c1Cc1c(O)c2ccccc2oc1=O" — what was its normalized growth?
*A* 0.964

Values compiled from PubChem BioAssay AID1159580.
